src = the supplement of paper PMC10724198

- System: Saccharomyces cerevisiae;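 note: PSI is a weighted mean of sequencing reads over stability bins, variants kept only with over 10 reads, mCherry proximal and sfGFP distal, peptide attached via GGGS linker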
- procedure.summary: protein stability index of tFT-peptide fusion (C-terminal peptide) (PSI (0-1 scale)); higher = more stable (slower turnover)
- particulars: genetic background: wild type; temperature: 30 C
Each record's protein stability index is compared with low: < 0.6; mid: ≥ 0.6 and < 0.7; high: ≥ 0.7 to give its class.

{"columns": ["sequence.string", "classification"],
 "data": [
  ["SKKKRQNQLIKM", "high"],
  ["GGSRRGLGAAGE", "mid"],
  ["KGKGREEEDISK", "mid"],
  ["PSSPTYVPPSFL", "mid"],
  ["VPIRSGYLRPNF", "low"],
  ["YLPLPPLTPPPR", "high"],
  ["AFMPGLLGDTYE", "mid"],
  ["AGGRGGGGGGDA", "mid"],
  ["LKQTNQHKVNTD", "mid"],
  ["QKHTTKKTKTRY", "high"],
  ["HPFGHSFLTAPF", "high"],
  ["TVMSDCQTDQAS", "mid"],
  ["WLKLWSYVTHLG", "low"],
  ["SDPLRLPNTCQH", "mid"],
  ["DSTMWDALSVCV", "mid"],
  ["GEWIDVSGCRRG", "high"],
  ["VGASLVVIAIGV", "low"],
  ["DSVFTKALEPAW", "high"],
  ["ACWGCGVGRGEV", "high"],
  ["VVLFFGPRWSLG", "mid"],
  ["SPLLPPRSPPLP", "high"],
  ["EYQGARAAGQSL", "mid"],
  ["GCGLVGGRWFRW", "mid"],
  ["RNYIVLYYDEGD", "mid"],
  ["CTGLEGGGLPFR", "mid"],
  ["ALLPTLFNSGAV", "high"],
  ["RVCCLSFFFVFL", "low"],
  ["GGGGVGTGCQRR", "mid"],
  ["AEWGGSTGGCWG", "high"],
  ["VVVWLFRIKSNV", "low"],
  ["PSPPCPPTDPPA", "mid"],
  ["PCRANRRLVTSP", "mid"],
  ["NIKPEDRNSTNA", "mid"],
  ["RKRVKRTIYESK", "mid"],
  ["RALITRAPSKER", "high"],
  ["SRSLHGTEEYRE", "mid"],
  ["PSPSPPPCPYPP", "mid"],
  ["PLALPLPRLVLP", "mid"],
  ["FLVFPLLIQFFL", "low"],
  ["IPLGLTLVQCLY", "low"],
  ["HDRRGLRRISAT", "mid"],
  ["VIQKKKKNKITS", "low"],
  ["GWLRHGWWRTVG", "low"],
  ["NHHETRNDCSST", "high"],
  ["CSERGQVCAVVY", "low"],
  ["RIFRCYSFYVVV", "low"],
  ["LKSYHKLKTCSS", "mid"],
  ["FDFISHLYWSIV", "low"],
  ["MKSSPFRASLDT", "mid"],
  ["GYRGMERGEGGG", "high"],
  ["LGFRCLGRGPDH", "mid"]
]}
